# ASSAY_TARGET: T1, TIAM2, Q8IVF5
# T1 sequence (Q8IVF5 885-986, limits assumed, looked up): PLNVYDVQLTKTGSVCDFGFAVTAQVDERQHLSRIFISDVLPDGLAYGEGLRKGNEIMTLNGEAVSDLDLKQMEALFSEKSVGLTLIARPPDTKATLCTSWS
# MEASUREMENT_NOTES: holdup assay
# Set-up: key: below the threshold = too weak to quantify, mostly under pKd 3.1 to 4
# DETAILS: plain residues with an end cap or a label only (N-terminal biotin on a linker: ahx)
ASSAY_READOUT: pKd

BINDER	RESULT
GYDWGPATDL [TJP3, O95049]	below the threshold
PSASCAVTAA [PDLIM4, P50479;P50479-2]	below the threshold
RAVEEEESRF [PSCDBP, O60759]	below the threshold
HNAFLSVTTV [PDZRN4, Q6ZMN7]	below the threshold
NRKREIFSNF [NHERF2, Q15599]	below the threshold
ESLLLGPSNF [SHROOM4, Q9ULL8]	3.49
